# assay.notes: Metabolic stability in human liver microsomes assessed as half life
# Type: ADME, Microsome
Entries and their half-life values follow.

molecule | half-life
O=C(N[C@@H]1C[C@H]2CCN(C2)C1)c1cc2ccoc2cn1 | > 2 h
O=C(N[C@H]1CN2CCC1CC2)c1cc2ccoc2cn1 [PHA-543613] | > 2 h

====

# Tested on: Brain
# assay.notes: Drug level in rat brain at 1 mg/kg, sc
# Assay type: ADME, organism-based
# Parameters: dose 1 mg/kg, route subcutaneous
# particulars: in vivo, read-out: Drug uptake

smiles.representation | concentration
O=C(N[C@@H]1C[C@H]2CCN(C2)C1)c1cc2ccoc2cn1 | 1200 nM

====

# assay.notes: Ratio of drug level in brain to plasma in mouse at 10 mg/kg after 60 min
# Format: ADME, organism-based
# Set-up: dose 10 mg/kg
measure: Kp at 1 h

smiles.representation | measure | experimental.value
O=C(N[C@H]1CN2CCC1CC2)c1cc2ccoc2cn1 | Kp at 1 h | 1.5
O=C(N[C@@H]1C[C@H]2CCN(C2)C1)c1ccc2occc2c1 | Kp at 1 h | 1.15
O=C(N[C@@H]1C[C@H]2CCN(C2)C1)c1ccc2ncsc2c1 | Kp at 1 h | 0.33
O=C(N[C@@H]1C[C@H]2CCN(C2)C1)c1cc2ccoc2cn1 | Kp at 1 h | 1.88

====

# measured.target: Neuronal acetylcholine receptor subunit alpha-7 (Rattus norvegicus, UniProt Q05941)
# Sequence (Q05941 whole entry): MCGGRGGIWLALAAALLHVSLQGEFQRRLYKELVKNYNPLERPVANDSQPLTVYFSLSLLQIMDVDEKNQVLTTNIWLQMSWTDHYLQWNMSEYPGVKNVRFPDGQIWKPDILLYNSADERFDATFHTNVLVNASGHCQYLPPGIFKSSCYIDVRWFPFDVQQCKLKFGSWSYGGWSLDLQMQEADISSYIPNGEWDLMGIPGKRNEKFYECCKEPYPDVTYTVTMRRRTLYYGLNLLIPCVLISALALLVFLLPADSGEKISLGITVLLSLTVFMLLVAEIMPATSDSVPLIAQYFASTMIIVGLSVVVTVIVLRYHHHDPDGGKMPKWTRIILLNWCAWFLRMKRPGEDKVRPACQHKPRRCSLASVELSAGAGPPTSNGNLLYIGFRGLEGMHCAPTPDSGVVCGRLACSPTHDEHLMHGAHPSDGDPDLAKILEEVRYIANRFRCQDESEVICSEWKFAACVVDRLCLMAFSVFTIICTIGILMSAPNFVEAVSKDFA
# assay.notes: Displacement of [3H]MLA from alpha-7 nACh receptor in rat brain

smiles.representation | Ki (nM)
O=C(N[C@H]1CN2CCC1CC2)c1cc2ccoc2cn1 | 9
O=C(N[C@@H]1C[C@H]2CCN(C2)C1)c1cc2ccoc2cn1 | 2.9
O=C(N[C@@H]1C[C@H]2CCN(C2)C1)c1cc2cccn2cn1 | 14
O=C(N[C@@H]1C[C@H]2CCN(C2)C1)c1ccc2c(c1)OCCO2 | 29
O=C(N[C@@H]1C[C@H]2CCN(C2)C1)c1cc2sccc2cn1 | 7
O=C(N[C@@H]1C[C@H]2CCN(C2)C1)c1ccc2ncsc2c1 | 21
O=C(N[C@@H]1C[C@H]2CCN(C2)C1)c1ccc2occc2c1 | 6.2

====

# assay.notes: Clearance in Sprague-Dawley rat at 5 mg/kg, po
# Assay type: ADME, organism-based
# Parameters: dose 5 mg/kg, route oral
# particulars: in vivo

smiles.representation | CL/F / mL/min/kg
O=C(N[C@H]1CN2CCC1CC2)c1cc2ccoc2cn1 | 33
O=C(N[C@@H]1C[C@H]2CCN(C2)C1)c1cc2ccoc2cn1 | 72

====

# assay.notes: Drug level in rat brain at 1 mg/kg, sc twice daily for 6 days
# Assay type: ADME, organism-based
# Parameters: dose 1 mg/kg, route subcutaneous
# particulars: read-out: Drug uptake
measure: concentration at 144 h (nM)

smiles.representation | unit.tag | experimental.value
O=C(N[C@@H]1C[C@H]2CCN(C2)C1)c1cc2ccoc2cn1 | nM | 350

====

# System: Plasma
# assay.notes: Drug level in rat plasma at 1 mg/kg, sc
# Type: ADME, organism-based
# Design: dose 1 mg/kg, route subcutaneous
# particulars: in vivo

smiles.representation | measured.target | concentration / nM
O=C(N[C@@H]1C[C@H]2CCN(C2)C1)c1cc2ccoc2cn1 | Plasma | 1100

====

# assay.notes: Oral bioavailability in Sprague-Dawley rat at 5 mg/kg
# Assay type: ADME, organism-based
# particulars: in vivo

smiles.representation | bioavailability
O=C(N[C@@H]1C[C@H]2CCN(C2)C1)c1cc2ccoc2cn1 | 40%

====

# Tested on: Plasma
# assay.notes: Drug level in rat plasma at 0.1 mg/kg, sc
# Format: ADME, organism-based
# Set-up: dose 0.1 mg/kg, route subcutaneous
# particulars: in vivo
measure: concentration (nM)

smiles.representation | measured.target | unit.tag | experimental.value
O=C(N[C@@H]1C[C@H]2CCN(C2)C1)c1cc2ccoc2cn1 | Plasma | nM | 60

====

# Tested on: Plasma
# assay.notes: Fraction unbound in human plasma at 0.100 ug/mL
# Assay type: ADME, cell-free
measure: fraction unbound

smiles.representation | measured.target | experimental.value
O=C(N[C@H]1CN2CCC1CC2)c1cc2ccoc2cn1 | Plasma | 0.83

====

# assay.notes: Drug level in rat plasma at 0.24 mg/kg, iv after 30 mins
# Format: ADME, organism-based
# Set-up: dose 0.24 mg/kg, route intravenous

smiles.representation | unit.tag | concentration at 0.5 h
O=C(N[C@@H]1C[C@H]2CCN(C2)C1)c1cc2ccoc2cn1 | nM | 130

====

# assay.notes: Cmax in dog ECG model
# Format: ADME, organism-based, Canis lupus familiaris
# particulars: in vivo

smiles.representation | Cmax
O=C(N[C@H]1CN2CCC1CC2)c1cc2ccoc2cn1 | 3.8 µM
O=C(N[C@@H]1C[C@H]2CCN(C2)C1)c1cc2ccoc2cn1 | 22 µM

====

# assay.notes: Apparent permeability from apical to basolateral side in dog MDCK cells
# Assay type: ADME, cell-based, Canis lupus familiaris
measure: Papp A→B (×10⁻⁶ cm/s)

compound | experimental.value
O=C(N[C@@H]1C[C@H]2CCN(C2)C1)c1ccc2occc2c1 | 3.8
O=C(N[C@@H]1C[C@H]2CCN(C2)C1)c1ccc2ncsc2c1 | 0.2
O=C(N[C@@H]1C[C@H]2CCN(C2)C1)c1cc2ccoc2cn1 | 21
O=C(N[C@H]1CN2CCC1CC2)c1cc2ccoc2cn1 [PHA-543613] | 34

====

# measured.target: 5-hydroxytryptamine receptor 3A (Rattus norvegicus)
# Sequence (P35563 whole entry): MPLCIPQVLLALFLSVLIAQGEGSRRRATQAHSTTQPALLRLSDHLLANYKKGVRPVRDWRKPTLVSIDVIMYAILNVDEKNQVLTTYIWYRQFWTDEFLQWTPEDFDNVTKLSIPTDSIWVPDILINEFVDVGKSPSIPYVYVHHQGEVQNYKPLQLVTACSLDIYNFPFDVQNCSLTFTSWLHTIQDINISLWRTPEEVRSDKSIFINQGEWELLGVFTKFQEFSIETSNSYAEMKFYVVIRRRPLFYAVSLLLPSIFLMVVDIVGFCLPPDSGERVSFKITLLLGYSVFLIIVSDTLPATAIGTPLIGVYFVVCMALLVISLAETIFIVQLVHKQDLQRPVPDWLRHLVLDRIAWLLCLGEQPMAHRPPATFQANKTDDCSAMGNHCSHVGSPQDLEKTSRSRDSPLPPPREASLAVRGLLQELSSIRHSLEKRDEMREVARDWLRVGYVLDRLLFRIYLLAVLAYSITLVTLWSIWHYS
Entries and their Ki values follow.
measure: Ki

smiles.representation | measured.target | experimental.value
O=C(N[C@@H]1C[C@H]2CCN(C2)C1)c1cc2ccoc2cn1 | 5-hydroxytryptamine receptor 3A (Rattus norvegicus) | 350 nM
O=C(N[C@H]1CN2CCC1CC2)c1cc2ccoc2cn1 | 5-hydroxytryptamine receptor 3A (Rattus norvegicus) | 630 nM

====

# assay.notes: Metabolic stability in rat liver microsomes assessed as hepatic extraction ratio after 30 mins
# Type: ADME, Microsome
measure: hepatic extraction ratio at 0.5 h

smiles.representation | relation.sign | experimental.value
O=C(N[C@@H]1C[C@H]2CCN(C2)C1)c1ccc2ncsc2c1 | < | 0.27
O=C(N[C@@H]1C[C@H]2CCN(C2)C1)c1ccc2occc2c1 | < | 0.27
O=C(N[C@@H]1C[C@H]2CCN(C2)C1)c1ccc(Cl)cc1 | = | 0.37
O=C(N[C@@H]1C[C@H]2CCN(C2)C1)c1cc2cccn2cn1 | = | 0.86
O=C(N[C@@H]1C[C@H]2CCN(C2)C1)c1ccc2c(c1)OCCO2 | = | 0.74
O=C(N[C@H]1CN2CCC1CC2)c1ccc(Cl)cc1 | < | 0.27
O=C(N[C@@H]1C[C@H]2CCN(C2)C1)c1cc2sccc2cn1 | = | 0.71

====

# assay.notes: Ratio of drug level in brain to plasma in mouse at 10 mg/kg after 5 mins
# Assay type: ADME, organism-based
# Set-up: dose 10 mg/kg
measure: Kp at 5 min

compound | measure | experimental.value
O=C(N[C@@H]1C[C@H]2CCN(C2)C1)c1cc2ccoc2cn1 | Kp at 5 min | 1.52
O=C(N[C@@H]1C[C@H]2CCN(C2)C1)c1ccc2occc2c1 | Kp at 5 min | 0.27
O=C(N[C@H]1CN2CCC1CC2)c1cc2ccoc2cn1 [PHA-543613] | Kp at 5 min | 1.5
O=C(N[C@@H]1C[C@H]2CCN(C2)C1)c1ccc2ncsc2c1 | Kp at 5 min | 0.02
